Test system: UO-31 renal
Test: NCI-60 one-dose screen, 48 h
Details: 10 µM unless noted
The panel holds about 83,000 compounds, 20% with a hit somewhere; the sample as a whole holds those more often. Calls of active or inactive are those of the source. The calls were made as follows: active = growth percent below 10; inactive = the rest.
Classes used: class 1 for active, class 0 for inactive

>  <compound>
Nc1nc2c(c3ncccc13)C(c1cccc(Cl)c1)Cc1ncccc1-2 (centres undefined)

>  <target.entity>
UO-31 renal

>  <group.label>
class 0

$$$$
>  <compound>
COc1cc2c(c(OC)c1OC)C(=O)CC(c1cccc(NC(=O)c3ccc(C#N)cc3)c1)O2 (centres undefined)

>  <target.entity>
UO-31 renal

>  <group.label>
class 0

$$$$
>  <compound>
CCOC(=O)c1cnc2c(N=Nc3ccc(OC)cc3)c(N)nn2c1N

>  <target.entity>
UO-31 renal

>  <group.label>
class 0

$$$$
>  <compound>
O=C(NC1CC(F)C1)c1cc2cccnc2n1-c1ccc(Cl)c(Cl)c1 (centres undefined)

>  <target.entity>
UO-31 renal

>  <group.label>
class 0

$$$$
>  <compound>
CCO/C=N/C1=C(C#N)C(c2ccc(F)cc2)c2sc3c(F)cccc3c2O1 (centres undefined)

>  <target.entity>
UO-31 renal

>  <group.label>
class 0

$$$$
>  <compound>
Cc1nn(-c2cc(NC3CCC(O)CC3)c3c(=O)[nH]c(CCC(F)(F)F)cc3c2)c2c1C(=O)CC(C)(C)C2 (centres undefined)

>  <target.entity>
UO-31 renal

>  <group.label>
class 0

$$$$
>  <compound>
CC1(C)OB(O)c2cc(-c3nc4ccc5[nH]ncc5c4c4c3CCCC4)ccc21

>  <target.entity>
UO-31 renal

>  <group.label>
class 0

$$$$
>  <compound>
N#C/C(=C\c1ccc([N+](=O)[O-])cc1)n1nnc2cc(F)c(F)cc21

>  <target.entity>
UO-31 renal

>  <group.label>
class 1

$$$$
>  <compound>
C#CCO[C@H]1CC(CC#C)(CC#C)C(=O)[C@@H]2[C@H]1[C@H]1C[C@@H]3[C@@]4(C)CCC[C@@](C)(C(=O)OC)[C@@H]4CC[C@@]23C=C1C(C)C

>  <target.entity>
UO-31 renal

>  <group.label>
class 1

$$$$
